molecular target: Calpain-2 catalytic subunit (Sus scrofa, UniProt P43367); assay: pig calpain II inhibitor potency, dose response, biochemical, fluorogenic peptide substrate (AID 1420); format: functional
Sequence (P43367 whole entry): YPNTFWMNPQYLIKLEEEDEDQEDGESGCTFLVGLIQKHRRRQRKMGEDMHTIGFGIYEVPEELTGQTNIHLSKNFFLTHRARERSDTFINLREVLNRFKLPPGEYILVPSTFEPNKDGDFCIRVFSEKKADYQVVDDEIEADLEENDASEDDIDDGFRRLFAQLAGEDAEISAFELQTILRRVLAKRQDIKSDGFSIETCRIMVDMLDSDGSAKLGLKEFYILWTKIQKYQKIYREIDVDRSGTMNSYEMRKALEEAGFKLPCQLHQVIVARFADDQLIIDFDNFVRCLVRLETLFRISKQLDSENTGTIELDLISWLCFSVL
reported endpoint: IC50

Some solved cases for reference:
[[record]]
compound = "Cc1ccc(C)c(NC(=O)Cc2nc(CCl)cs2)c1"
reported_value = "1.04 µM (not active)"

[[record]]
compound = "CCCCCCCCCCCCCCCCn1cc[n+](C)c1"
reported_value = "11.4 µM (not active)"


Q) Name the recorded IC50 for O=[N+]([O-])c1cccc(S(=O)(=O)Nc2nc3ccccc3nc2Nc2cccc(S(=O)(=O)N3CCCCC3)c2)c1 .
A) 4.49 µM (not active)

Q) Please look up its IC50: COc1cc(/C=N/n2cnnc2)ccc1OS(=O)(=O)c1ccccc1[N+](=O)[O-]
A) 15.5 µM (not active)

Q) Can you look up the measured IC50 of O=C(COC(=O)CSc1ccc2ccccc2c1)Nc1ccccc1OC(F)F for me?
A) 1.8 µM (not active)

Q) Which measured IC50 value corresponds to O=[N+]([O-])c1ccc(Oc2cccc(F)c2)c2ccncc12 ?
A) 3.5 µM (not active)

Q) What does the record list as IC50 for O=C(CN=C(S)N(Cc1ccccc1)Cc1ccccc1F)NCc1ccccc1 ?
A) > 50 µM (not active)
